tested on: Vibrio parahaemolyticus; experiment: Antibacterial activity against Vibrio parahaemolyticus ATCC 17802 assessed as growth inhibition; type: functional
Endpoint: log10 of MIC (log10 of the value in µM)
For clarity, the numbers are log10 values of MIC expressed in µM.

Can you look up the measured log10 of MIC of Cc1cc(O)cc(Oc2cc(C)cc(OC(=O)c3ccccc3)c2)c1 for me?
1.27

Can you look up the measured log10 of MIC of O=C(O)c1cn(C2CC2)c2cc(N3CCNCC3)c(F)cc2c1=O [CIPROFLOXACIN] for me?
-0.71

Can you look up the measured log10 of MIC of COc1cc(C)cc(Oc2cc(C)cc(O)c2)c1 [CORDYOL E] for me?
1.71

Can you look up the measured log10 of MIC of Cc1c(Br)c(O)c(Br)c(Oc2c(Br)c(C)c(Br)c(O)c2Br)c1Br for me?
0.05

Can you look up the measured log10 of MIC of CCCCCOc1cc(C)cc(Oc2cc(C)cc(OCCCCC)c2)c1 for me?
2.00

Can you look up the measured log10 of MIC of CCCOc1cc(C)cc(Oc2cc(C)cc(O)c2)c1 for me?
0.46

Can you look up the measured log10 of MIC of CC(=O)Oc1cc(C)cc(Oc2cc(C)cc(O)c2)c1 for me?
2.00

====

Give log10(MIC) for every item shown.
tested on: Staphylococcus epidermidis; experiment: Antibacterial activity against Staphylococcus epidermidis ATCC 12228 assessed as growth inhibition; assay type: functional
For clarity, the numbers are log10 values of MIC expressed in µM.

Form: Entry = CCCCCOc1cc(C)cc(Oc2cc(C)cc(O)c2)c1 | System = Staphylococcus epidermidis | log10(MIC) = ____
1.32

Form: Entry = Cc1cc(O)cc(Oc2cc(C)cc(O)c2)c1 [DIORCINOL] | System = Staphylococcus epidermidis | log10(MIC) = ____
1.43

Form: Entry = CC1(C)C=Cc2c(ccc3c4c([nH]c23)C(C)(C)[C@@H]2C[C@]35CCCN3C(=O)[C@@]2(C4)NC5=O)O1 [STEPHACIDIN A] | System = Staphylococcus epidermidis | log10(MIC) = ____
1.16

Form: Entry = Cc1c(Br)c(O)c(Br)c(Oc2c(Br)c(C)c(Br)c(O)c2Br)c1Br | System = Staphylococcus epidermidis | log10(MIC) = ____
-0.25

Form: Entry = COC(=O)c1c(C)c(Br)c(Oc2c(Br)c(C)c(Br)c(O)c2Br)c(Br)c1O | System = Staphylococcus epidermidis | log10(MIC) = ____
2.00

Form: Entry = COc1cc(C)cc(Oc2cc(C)cc(O)c2)c1 [CORDYOL E] | System = Staphylococcus epidermidis | log10(MIC) = ____
1.41

====

Give MIC for every item shown.
system: Staphylococcus epidermidis; assay: Antibacterial activity against Staphylococcus epidermidis ATCC 12228 assessed as growth inhibition; type: functional
# number only, unit µM dropped from output

Form: Entry = CCCOc1cc(C)cc(Oc2cc(C)cc(O)c2)c1 | System = Staphylococcus epidermidis | MIC = ____
46

Form: Entry = Cc1cc(O)cc(Oc2cc(C)cc(OC(=O)c3ccccc3)c2)c1 | System = Staphylococcus epidermidis | MIC = ____
18.7

Form: Entry = CC(=O)Oc1cc(C)cc(Oc2cc(C)cc(O)c2)c1 | System = Staphylococcus epidermidis | MIC = ____
100

Form: Entry = COC(=O)c1c(C)cc(Oc2cc(C)cc(O)c2)cc1O | System = Staphylococcus epidermidis | MIC = ____
2.71

Form: Entry = Cc1cc(O)cc(Oc2cc(C)cc(O)c2O)c1 [CORDYOL C] | System = Staphylococcus epidermidis | MIC = ____
100
